Would you mind telling me the reported IC50 of each entry?
Molecular target: Cqui\Orco+Cqui\Or21 (Culex quinquefasciatus, UniProt Q309I4)
Sequence (Q309I4 entry or part of it): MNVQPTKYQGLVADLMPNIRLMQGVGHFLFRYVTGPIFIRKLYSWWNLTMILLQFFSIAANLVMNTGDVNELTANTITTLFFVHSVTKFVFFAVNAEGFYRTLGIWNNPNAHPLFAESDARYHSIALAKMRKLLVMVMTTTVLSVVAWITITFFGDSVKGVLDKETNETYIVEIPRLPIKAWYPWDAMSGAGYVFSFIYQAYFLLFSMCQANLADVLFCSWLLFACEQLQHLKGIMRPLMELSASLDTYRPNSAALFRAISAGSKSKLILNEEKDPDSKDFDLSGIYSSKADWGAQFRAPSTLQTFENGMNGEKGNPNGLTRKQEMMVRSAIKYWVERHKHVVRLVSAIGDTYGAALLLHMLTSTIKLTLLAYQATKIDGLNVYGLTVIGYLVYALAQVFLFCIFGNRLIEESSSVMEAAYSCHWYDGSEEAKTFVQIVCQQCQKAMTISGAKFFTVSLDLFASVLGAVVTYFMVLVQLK
Assay: Antagonism of Orco agonist (OLC12) activation of the OR expressed in Xenopus oocytes, two-electrode voltage clamp
Type: cell-based
Settings: activated by 3 µM OLC12; Xenopus oocytes; read-out: IC50 for inhibition of Cqui\Orco+Cqui\Or21 activation by OLC12
Provide only the numeric value, understood in µM.

Tell me reported IC50 for CC(=O)c1cccc(NC(=O)c2cccs2)c1 , tested with Cqui\Orco+Cqui\Or21 (Culex quinquefasciatus, UniProt Q309I4).
14

Tell me reported IC50 for O=C(Nc1cccc(Cl)c1)c1sccc1Cl , tested with Cqui\Orco+Cqui\Or21 (Culex quinquefasciatus, UniProt Q309I4).
7.8

Tell me reported IC50 for O=C(Nc1cccc(Cl)c1)c1cccs1 , tested with Cqui\Orco+Cqui\Or21 (Culex quinquefasciatus, UniProt Q309I4).
13

Tell me reported IC50 for Cc1cccc(C)c1NC(=O)c1sccc1Cl , tested with Cqui\Orco+Cqui\Or21 (Culex quinquefasciatus, UniProt Q309I4).
7.2

Tell me reported IC50 for O=C(NCc1ccccc1)c1cccs1 [OX3b, N-benzyl-2-thiophenecarboxamide] , tested with Cqui\Orco+Cqui\Or21 (Culex quinquefasciatus, UniProt Q309I4).
5.1

Tell me reported IC50 for CCc1ccc(NC(=O)c2cccs2)cc1 [OX1a, N-(4-ethylphenyl)-2-thiophenecarboxamide] , tested with Cqui\Orco+Cqui\Or21 (Culex quinquefasciatus, UniProt Q309I4).
51

Tell me reported IC50 for Cc1cccc(NC(=O)c2cccs2)c1C , tested with Cqui\Orco+Cqui\Or21 (Culex quinquefasciatus, UniProt Q309I4).
1.7

Tell me reported IC50 for Cc1ccc(CNC(=O)c2cccs2)cc1 , tested with Cqui\Orco+Cqui\Or21 (Culex quinquefasciatus, UniProt Q309I4).
1.7

Tell me reported IC50 for Cc1ccc(NC(=O)c2sccc2Cl)c(C)c1 , tested with Cqui\Orco+Cqui\Or21 (Culex quinquefasciatus, UniProt Q309I4).
5.5

Tell me reported IC50 for CCc1ccccc1NC(=O)c1cccs1 [OX1j, N-(2-ethylphenyl)-2-thiophenecarboxamide] , tested with Cqui\Orco+Cqui\Or21 (Culex quinquefasciatus, UniProt Q309I4).
5.4

Tell me reported IC50 for Cc1cc(C)c(NC(=O)c2cccs2)c(C)c1 [OX1l, N-mesityl-2-thiophenecarboxamide] , tested with Cqui\Orco+Cqui\Or21 (Culex quinquefasciatus, UniProt Q309I4).
3.8

Tell me reported IC50 for CCc1ccccc1NC(=O)C=Cc1cccs1 , tested with Cqui\Orco+Cqui\Or21 (Culex quinquefasciatus, UniProt Q309I4).
2.1

Value source: paper PMC3866151
